B1: glmS ribozyme (parent)
chain: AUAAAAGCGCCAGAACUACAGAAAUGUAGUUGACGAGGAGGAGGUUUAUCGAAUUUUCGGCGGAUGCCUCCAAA

# Variants of: B1
# TEST_DETAILS: self-cleavage kobs at 10000 uM GlcN6P; higher = faster cleavage; RNA array
# RUN_CONDITIONS: with glucosamine-6-phosphate
This sample holds only a part of the variants without activity.
The entries below come with measured self-cleavage kobs at 10000 uM GlcN6P values attached.
Number only, in s⁻¹; omit the unit.

{"columns": ["SEQ_STRING", "self-cleavage kobs at 10000 uM GlcN6P (s⁻¹)"],
 "data": [
  ["AUAAAAGAGCCAGAACUACAGAAAUGUAGUUGACGAGGAGGAGGUUUAUCGAAUUUUCGGCGGAUGGGUCCAAA", "4.91e-05"]
]}

Request: Report measured self-cleavage kobs at 10000 uM GlcN6P; entry is `AUAAAAGCGCCAGGACUACAGAAAUGUAGUUGACGAGGAGGAGGUUUAUCGAAUUUUCGGCGGUUGCCUCCAAA`
Response: 0.000257

Request: Report measured self-cleavage kobs at 10000 uM GlcN6P; entry is `AUAAAAGCGCCAGAAGUACAGAAAUGUAGUUGACGAGGAGGAGGUUUAUCGAAUUAUCGGCGGAUGCCUCCAAA`
Response: 0.00286

Request: Report measured self-cleavage kobs at 10000 uM GlcN6P; entry is `AUAAAAGCGCCAGUACUACAGAAAUGUAGUUGACGAGGACGAGGUCUAUCGAGUUUUCGGCGGAUGCCUCGAAA`
Response: 0.00202

Request: Report measured self-cleavage kobs at 10000 uM GlcN6P; entry is `AUAAAAGCGCCUGAACUACAGAAAUGUAGUUGACGAGGAAGAGGUUUAUCGAAUUUUCGGCGGAUGCCUCCAAA`
Response: 0.013

Request: Report measured self-cleavage kobs at 10000 uM GlcN6P; entry is `AUAAAAGCGCCAGACCUACAGAAAUGUAGUUGACGAGGAAGAGGUUUAUCGAAUUUUCGGCGGAUGCCUCCAAA`
Response: 0.000584

Request: Report measured self-cleavage kobs at 10000 uM GlcN6P; entry is `AUAAAAGCGCCAGUACUACAGAAAUGUAGUUGACGAGGAGGGGGUUUAUCGAAUUUUCGGCGGAUGCCUCCAAA`
Response: 0.0147

Request: Report measured self-cleavage kobs at 10000 uM GlcN6P; entry is `AUAAAAGCGCCGGAACUACAGAAAUGUAGUUGACGAGGAGGAGGUUUAUCGAAUUUUCGGCGGAGGCCUCCAAA`
Response: 8.79e-05

Request: Report measured self-cleavage kobs at 10000 uM GlcN6P; entry is `AUAAAAGCGCCAGAACUACAGAAAUGUACUUGACGAGGAGGAGGUUUAUCGAAUUUUCGGCGGAUGCCCCCAAA`
Response: 6.68e-05
